test summary: isobaric coefficient of expansion
assay setup: 328.15 K; 15000 kPa; Liquid; Micro DSCII
# isobaric coefficient of expansion values compiled below

isobaric coefficient of expansion recorded for this compound, CCCCn1cc[n+](C)c1.COS(=O)(=O)[O-] [1-butyl-3-methylimidazolium methyl sulfate] , is 0.000524 1/K

Lookup result for CCCCn1cc[n+](C)c1.F[B-](F)(F)F [1-butyl-3-methylimidazolium tetrafluoroborate] ; measured isobaric coefficient of expansion: 0.000563 1/K

Looking up CCCCn1cc[n+](C)c1.[F][Sb-]([F])([F])([F])([F])[F] [1-butyl-3-methylimidazolium hexafluoroantimonate] , I see its isobaric coefficient of expansion listed as 0.000595 1/K

Field isobaric coefficient of expansion (entry CCCCn1cc[n+](C)c1.O=S(=O)([O-])C(F)(F)F [1-butyl-3-methylimidazolium trifluoromethanesulfonate] ) reads 0.000581 1/K

Here is another compound to look at.
Recorded result, `CCCC[n+]1ccn(C)c1.O=S(=O)([N-]S(=O)(=O)C(F)(F)F)C(F)(F)F` , isobaric coefficient of expansion: 0.000636 1/K
